Target: C-X-C chemokine receptor type 4 (Homo sapiens)
Sequence (P61073 whole entry): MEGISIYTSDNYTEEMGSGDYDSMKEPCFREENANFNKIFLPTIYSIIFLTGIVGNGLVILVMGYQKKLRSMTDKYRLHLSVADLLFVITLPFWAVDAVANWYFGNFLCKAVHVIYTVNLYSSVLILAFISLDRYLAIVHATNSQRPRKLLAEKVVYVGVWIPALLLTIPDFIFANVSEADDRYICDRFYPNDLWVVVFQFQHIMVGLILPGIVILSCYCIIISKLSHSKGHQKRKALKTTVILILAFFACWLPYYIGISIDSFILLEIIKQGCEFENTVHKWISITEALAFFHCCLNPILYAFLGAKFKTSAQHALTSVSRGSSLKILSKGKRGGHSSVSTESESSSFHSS
Assay: Inhibition of [125I]SDF1 binding to CXCR4 transfected in CHO cells
Type: cell-based
pIC50: −log10 of the molar value.
result-type: pIC50

| smiles-code | pIC50 |
| --- | --- |
| C[C@H]1NC(=O)CNC(=O)[C@H](Cc2ccc3ccccc3c2)NC(=O)[C@H](CCCNC(=N)N)NC(=O)[C@@H](CCCNC(=N)N)NC1=O | 6.89 |
| N=C(N)NCCC[C@@H]1NC(=O)[C@H](CCCNC(=N)N)NC(=O)[C@@H](Cc2ccc(O)cc2)NC(=O)[C@H]2CCCN2C(=O)[C@H](Cc2ccc3ccccc3c2)NC1=O | < 6.00 |
| C[C@@H]1NC(=O)[C@@H](CCCNC(=N)N)NC(=O)[C@@H](Cc2ccc(O)cc2)NC(=O)CNC(=O)[C@H](Cc2ccc3ccccc3c2)NC1=O | < 6.00 |

Turning to the following compound.
Entry "C[C@@H]1NC(=O)[C@H](CCCNC(=N)N)NC(=O)[C@@H](CCCNC(=N)N)NC(=O)[C@@H](Cc2ccc(O)cc2)NC(=O)CNC1=O" ; pIC50 = < 6.00
